# tgt: MLK-3 (Homo sapiens)
# measurement.notes: Biochemical assay for the inhibition of kinase activity for MLK-3 (33P-ATP, HOTSPOT filter binding)
# conditions.used: activated MLK-3 20 nM, ATP 50 μM, myelin basic protein 20 μM, 20 minutes room temperature
measured.parameter: IC50

COc1cc(Nc2ccc3ncc(-c4cc5ccccc5s4)n3n2)ccc1OCCCO = 100 to 500 nM
COc1ccc2c(c1)cc(-c1cnc3ccc(N[C@H]4CC[C@H](O)CC4)nn13)n2C = < 5000 nM
CN1CCN(c2cccc(Nc3ccc4ncc(-c5cc6ccccc6s5)n4n3)c2)CC1 = < 5000 nM
COc1ccc2c(c1)cc(-c1cnc3ccc(Nc4ccc(OC)c(OC)c4)nn13)n2C = < 5000 nM
COc1cc2cc(-c3cnc4ccc(N[C@H]5CC[C@H](OC)CC5)nn34)sc2cc1OC = 100 to 500 nM

Reading of IC50 for "COc1ccc(Nc2ccc3ncc(-c4cc5cccc(OC)c5s4)n3n2)cc1OC" with MLK-3 (Homo sapiens): < 100 nM

Reading of IC50 for "COc1cc(Nc2ccc3ncc(-c4cc5ccccc5s4)n3n2)ccc1OCC1CC1" with MLK-3 (Homo sapiens): < 5000 nM

Reading of IC50 for "Oc1cccc2cc(-c3cnc4ccc(N[C@H]5CC[C@H](O)CC5)nn34)sc12" with MLK-3 (Homo sapiens): < 100 nM

Reading of IC50 for "COc1cc(Nc2ccc3ncc(-c4cc5ccccc5s4)n3n2)ccc1OC(C)C" with MLK-3 (Homo sapiens): < 5000 nM

Reading of IC50 for "COc1cc(Nc2ccc3ncc(-c4cc5ccccc5s4)n3n2)cc(OC)c1OC" with MLK-3 (Homo sapiens): 500 to 1000 nM

Reading of IC50 for "CC(C)CNc1ccc2ncc(-c3ccc4[nH]ccc4c3)n2n1" with MLK-3 (Homo sapiens): < 5000 nM

Reading of IC50 for "COc1ccc2[nH]c(-c3cnc4ccc(N[C@H]5CC[C@H](O)CC5)nn34)cc2c1" with MLK-3 (Homo sapiens): < 100 nM

* * *

# tgt: MLK-3 (Homo sapiens, UniProt Q16584)
# Sequence (Q16584 whole entry): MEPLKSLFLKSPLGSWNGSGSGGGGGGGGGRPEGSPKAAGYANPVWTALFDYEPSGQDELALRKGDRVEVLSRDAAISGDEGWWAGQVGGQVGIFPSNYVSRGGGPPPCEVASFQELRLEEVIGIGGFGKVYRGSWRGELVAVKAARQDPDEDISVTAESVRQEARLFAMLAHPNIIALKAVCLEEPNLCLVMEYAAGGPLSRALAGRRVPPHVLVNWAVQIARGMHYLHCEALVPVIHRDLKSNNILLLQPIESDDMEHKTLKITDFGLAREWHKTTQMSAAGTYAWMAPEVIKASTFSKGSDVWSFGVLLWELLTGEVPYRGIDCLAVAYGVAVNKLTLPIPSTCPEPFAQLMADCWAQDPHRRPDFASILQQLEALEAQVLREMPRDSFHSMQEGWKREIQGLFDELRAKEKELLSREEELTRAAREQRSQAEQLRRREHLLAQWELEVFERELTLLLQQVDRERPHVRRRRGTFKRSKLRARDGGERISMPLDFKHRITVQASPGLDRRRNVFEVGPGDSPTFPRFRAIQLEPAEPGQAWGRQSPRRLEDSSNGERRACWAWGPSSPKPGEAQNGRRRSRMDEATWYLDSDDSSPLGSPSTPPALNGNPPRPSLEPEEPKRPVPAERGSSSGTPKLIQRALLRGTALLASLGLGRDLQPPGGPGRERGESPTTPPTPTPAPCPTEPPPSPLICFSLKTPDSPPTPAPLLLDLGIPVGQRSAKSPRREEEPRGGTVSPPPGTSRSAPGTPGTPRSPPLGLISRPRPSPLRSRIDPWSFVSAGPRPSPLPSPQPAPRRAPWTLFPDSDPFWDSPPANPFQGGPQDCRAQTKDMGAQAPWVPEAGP
# measurement.notes: Biochemical assay for the inhibition of kinase activity for MLK-3 (33P-ATP, HOTSPOT filter binding)
# conditions.used: activated MLK-3 20 nM, ATP 50 μM, myelin basic protein 20 μM, 20 minutes room temperature
measured.parameter: IC50

Consider the reported IC50 for these compounds:
COc1ccc(Nc2ccc3ncc(-c4cc5cccnc5s4)n3n2)cc1OC = 0.1 to 0.5 µM
COc1ccc(N(C)c2ccc3ncc(-c4cc5cncc(OC)c5s4)n3n2)cc1OC = < 5 µM
O[C@H]1CC[C@H](Nc2ccc3ncc(-c4cc5ccccc5s4)n3n2)CC1 = 0.1 to 0.5 µM
COc1ccc(Nc2ccc3ncc(-c4cc5ccccc5s4)n3n2)cc1C(=O)O = 0.5 to 1 µM
COc1cccc2cc(-c3cnc4ccc(N[C@H]5CC[C@H](O)CC5)nn34)[nH]c12 = < 0.1 µM
Cc1cccc2cc(-c3cnc4ccc(N[C@H]5CC[C@H](O)CC5)nn34)[nH]c12 = 0.1 to 0.5 µM
CO[C@H]1CC[C@H](Nc2ccc3ncc(-c4cc5cncc(C)c5s4)n3n2)CC1 = 0.1 to 0.5 µM
COc1ccc(Nc2ccc3ncc(-c4cc5cccc(OC)c5[nH]4)n3n2)cc1OC = < 0.1 µM
c1cc2cc(-c3cnc4ccc(NCC5CC5)nn34)ccc2[nH]1 = < 5 µM
COc1ccc(Nc2ccc3ncc(-c4cc5cccc(OC(F)F)c5s4)n3n2)cc1OC = 0.5 to 1 µM

Value of measured IC50 for the entry "COc1ccc(Nc2ccc3ncc(-c4cc5cncc(C)c5s4)n3n2)cc1OC" : 0.1 to 0.5 µM

Value of measured IC50 for the entry "CN1CCN(CCCNc2ccc3ncc(-c4cc5ccccc5s4)n3n2)CC1" : < 5 µM

Value of measured IC50 for the entry "COc1ccc2[nH]c(-c3cnc4ccc(N[C@H]5CC[C@H](OC)CC5)nn34)cc2c1" : < 5 µM

Value of measured IC50 for the entry "COc1ccc2[nH]c(-c3cnc4ccc(Nc5ccc(OC)c(OC)c5)nn34)cc2c1" : 0.1 to 0.5 µM

Value of measured IC50 for the entry O[C@H]1CCC[C@@H](Nc2ccc3ncc(-c4cc5ccccc5s4)n3n2)C1 (relative stereo) : 0.1 to 0.5 µM

Value of measured IC50 for the entry "COc1cc(Nc2ccc3ncc(-c4cc5cccc(OC)c5s4)n3n2)ccc1OC(F)(F)F" : < 5 µM

Value of measured IC50 for the entry "CCCN(C)c1ccc2ncc(-c3ccc4[nH]ccc4c3)n2n1" : < 5 µM

Value of measured IC50 for the entry "CN1CCN(c2cccc(Nc3ccc4ncc(-c5ccc6[nH]ccc6c5)n4n3)c2)CC1" : 0.5 to 1 µM

Value of measured IC50 for the entry "Oc1ccc(-c2cnc3ccc(N[C@H]4CC[C@H](O)CC4)nn23)cc1" : < 5 µM

Value of measured IC50 for the entry "COc1ccc(Nc2ccc3ncc(-c4cc5ccccc5s4)n3n2)cc1OC" : 0.1 to 0.5 µM

Value of measured IC50 for the entry "CN1CCN(Cc2ccc(-c3ccc4ncc(-c5cc6ccccc6s5)n4n3)cc2)CC1" : < 5 µM

Value of measured IC50 for the entry "COc1ccc(Nc2ccc3ncc(-c4cc5cc(OC)c(OC)cc5s4)n3n2)cc1OC" : < 0.1 µM

Value of measured IC50 for the entry "COc1cc2cc(-c3cnc4ccc(Nc5ccc(OCCCO)c(OC)c5)nn34)sc2cc1OC" : < 0.1 µM

Value of measured IC50 for the entry "O=C(O)c1cccc(Nc2ccc3ncc(-c4cc5ccccc5s4)n3n2)c1" : 0.1 to 0.5 µM

Value of measured IC50 for the entry "O[C@H]1CC[C@H](Nc2ccc3ncc(-c4cc5cnccc5s4)n3n2)CC1" : 0.1 to 0.5 µM

Value of measured IC50 for the entry "COc1cccc(Nc2ccc3ncc(-c4ccc5[nH]ccc5c4)n3n2)c1" : < 5 µM

Value of measured IC50 for the entry "COc1ccc(Nc2ccc3ncc(-c4cc5cccc(OC(C)C)c5s4)n3n2)cc1OC" : 0.1 to 0.5 µM

Value of measured IC50 for the entry "COc1ccc(Nc2ccc3ncc(-c4cc5cccc(OC(C)=O)c5s4)n3n2)cc1OC" : 0.1 to 0.5 µM

Value of measured IC50 for the entry "OCCCNc1ccc2ncc(-c3cc4ccccc4s3)n2n1" : 0.1 to 0.5 µM

Value of measured IC50 for the entry "COc1ccc(Nc2ccc3ncc(-c4cc5ccncc5s4)n3n2)cc1OC" : < 0.1 µM

Value of measured IC50 for the entry "COc1ccc(Nc2ccc3ncc(-c4cc5cc(OC)c(OC)cc5[nH]4)n3n2)cc1OC" : 0.1 to 0.5 µM

Value of measured IC50 for the entry "COc1cc(Nc2ccc3ncc(-c4cc5cccc(OC(F)(F)F)c5s4)n3n2)ccc1OC(F)(F)F" : < 5 µM

Value of measured IC50 for the entry "O=C(O)c1cc(Nc2ccc3ncc(-c4cc5ccccc5s4)n3n2)ccc1OCCCO" : 0.5 to 1 µM

Value of measured IC50 for the entry "O=C(O)c1cccc(Nc2ccc3ncc(-c4ccc5ccccc5c4)n3n2)c1" : 0.1 to 0.5 µM

* * *

# tgt: MLK-3 (Homo sapiens, UniProt Q16584)
# measurement.notes: Biochemical assay for the inhibition of kinase activity for MLK-3 (33P-ATP, HOTSPOT filter binding)
# conditions.used: activated MLK-3 20 nM, ATP 50 μM, myelin basic protein 20 μM, 20 minutes room temperature
pIC50: −log10 of the molar value.
measured.parameter: pIC50

O[C@H]1CC[C@H](Nc2ccc3ncc(-c4csc5ccccc45)n3n2)CC1 = 6.00 to 6.30
COc1ccc(Nc2ccc3ncc(-c4cc5cccc(OC)c5s4)n3n2)cc1OC(F)(F)F = > 5.30
COc1ccc(Nc2ccc3ncc(-c4cc(OC)c(OC)c(OC)c4)n3n2)cc1OC = > 5.30

Value of measured pIC50 for the entry "COc1ccc2cc(-c3cnc4ccc(N[C@H]5CC[C@H](O)CC5)nn34)ccc2c1" : 6.00 to 6.30

* * *

# tgt: MLK-3 (Homo sapiens)
# measurement.notes: Biochemical assay for the inhibition of kinase activity for MLK-3 (33P-ATP, HOTSPOT filter binding)
# conditions.used: activated MLK-3 20 nM, ATP 50 μM, myelin basic protein 20 μM, 20 minutes room temperature
measured.parameter: IC50

OCCNc1ccc2ncc(-c3cc4ccccc4s3)n2n1 = 500 to 1000 nM

Value of measured IC50 for the entry "COc1cc2cc(-c3cnc4ccc(N(C)[C@H]5CC[C@H](O)CC5)nn34)sc2cc1OC" : < 100 nM

Value of measured IC50 for the entry "COc1ccc(Nc2ccc3ncc(-c4cc5cc(C)ccc5s4)n3n2)cc1OC" : < 5000 nM

Value of measured IC50 for the entry "c1cc2cc(-c3ccc4ncc(-c5ccc6[nH]ccc6c5)n4n3)ccc2[nH]1" : 100 to 500 nM

Value of measured IC50 for the entry "CCCOc1ccc(Nc2ccc3ncc(-c4cc5cccc(OC)c5s4)n3n2)cc1OC" : < 5000 nM

Value of measured IC50 for the entry "COc1ccc2cc(-c3cnc4ccc(Nc5ccc(OC)c(OC)c5)nn34)sc2c1" : 100 to 500 nM

Value of measured IC50 for the entry "O[C@H]1CC[C@H](Nc2ccc3ncc(-c4ccc5cc(F)ccc5c4)n3n2)CC1" : 500 to 1000 nM

Value of measured IC50 for the entry "COc1ccc(Nc2ccc3ncc(-c4cc5cc(OC)c(OC)c(OC)c5s4)n3n2)cc1OC" : < 5000 nM
